# assay text: Mouse pharmacokinetics after oral gavage, plasma drug concentration by LC-MS/MS (C57BL/6)
# Format: in vivo, C57bl/6 mice
# condition label: C57BL/6, 60 mg/kg, female mice
# Procedure: Compounds were formulated in 5% DMSO/5% Tween20 in H2O, sonicated, vortexed, and put on stir plate overnight at a dose volume of 10 mL/kg. […] Plasma was collected via centrifugation and analyzed for drug concentrations. […] Prepared samples were usually analyzed in reverse chronological order with bracketing standard curves. Typically at least 6 standards were used for quantification with a percent accuracy of +/−15% for all standards except at the LLOQ where a percent accuracy of +/−20% was allowed. […]
apparent oral clearance (CL/F) listing for selected compounds.
Kindly report the value followed by its unit.

Lab book: apparent oral clearance (CL/F) of Cc1cc(NC(=O)[C@H](CCN)NC(=O)[C@@H]2Cc3ccccc3CN2C(=O)CCC(=O)N(C)CC(C)(C)C)ccc1Cl [Compound 12-114] noted as 823 mL/min/kg

Just so you know, measured apparent oral clearance (CL/F) for Cc1cc(NC(=O)[C@H](CCN)NC(=O)[C@@H]2Cc3ccccc3CN2C(=O)CCC(=O)c2ccccc2)c(C#N)cc1Cl [Compound 14-18] came out at 222 mL/min/kg

Query Cc1cc(NC(=O)[C@H](CCN)NC(=O)[C@@H]2Cc3ccccc3CN2C(=O)CCC(=O)N2CCCC(C)(C)C2)cc(C)c1Cl [Compound 10-9] yields apparent oral clearance (CL/F) of 132 mL/min/kg

###

# assay target: CXCR3 (Homo sapiens)
# Construct: host or cells: CHO-K1 (cAMP Hunter CHOK1 CXCR3 Gi cell line)
# assay text: CXCR3 cAMP agonist assay (cAMP Hunter CHOK1 CXCR3 Gi cell line, forskolin-stimulated, HitHunter cAMP detection)
# Format: cell-based
# condition label: cAMP Hunter CHOK1 CXCR3 Gi cells, 20 μM forskolin, 30 minutes; read-out: Activity (CXCR3 cAMP agonist assay compound EC50)
# Description: The cAMP Hunter™ CHOK1 CXCR3 Gi cell line was purchased from DiscoveRx. Cells were seeded into a 96-well white assay plate at 50,000 cells/well/94 μl assay buffer (Hank's Buffered Saline Solution, 10 mM HEPES, 0.1% fatty acid-free BSA, pH 7.4) and immediately assayed in suspension. […] Direct detection of cAMP was carried out using the DiscoveRx HitHunter cAMP kit according to manufacturer's instructions, and luminescence was read using a SpectraMax M5 plate reader.
# EC50 annotations

Recorded results for 2 compounds are shown here.
CO[C@H]1CCCN(C(=O)CCC(=O)N2Cc3ccccc3C[C@H]2C(=O)N[C@@H](CCN)C(=O)Nc2ccc(Cl)c(Cl)c2F)C1 [Compound 15-26] | < 50 nM
Cc1cc(NC(=O)[C@@H](CC23CC(N)(C2)C3)NC(=O)[C@@H]2Cc3ccccc3CN2C(=O)CCC(=O)c2ccccc2)ccc1Cl [Compound 22-2] | 250 to 500 nM

Reported EC50 for COCC1CCCCN1C(=O)CCC(=O)N1Cc2ccccc2C[C@H]1C(=O)N[C@@H](CCN)C(=O)Nc1ccc(Cl)c(Cl)c1F (stereo partly drawn) [Compound 15-16] was < 50 nM

###

# assay target: CXCR3 (Homo sapiens, UniProt P49682)
# Construct: host or cells: CHO-K1 (cAMP Hunter CHOK1 CXCR3 Gi cell line)
# Sequence (P49682 whole entry): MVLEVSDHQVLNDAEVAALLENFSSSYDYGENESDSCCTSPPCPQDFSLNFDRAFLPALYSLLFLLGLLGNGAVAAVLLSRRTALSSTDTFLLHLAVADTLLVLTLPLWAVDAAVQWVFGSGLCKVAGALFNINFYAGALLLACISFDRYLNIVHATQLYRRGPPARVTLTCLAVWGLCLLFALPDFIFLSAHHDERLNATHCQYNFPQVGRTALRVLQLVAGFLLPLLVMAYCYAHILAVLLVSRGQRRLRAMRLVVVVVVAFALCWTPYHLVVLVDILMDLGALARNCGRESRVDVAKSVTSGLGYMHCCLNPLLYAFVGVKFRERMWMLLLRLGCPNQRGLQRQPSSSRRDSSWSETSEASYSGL
# assay text: CXCR3 cAMP agonist assay (cAMP Hunter CHOK1 CXCR3 Gi cell line, forskolin-stimulated, HitHunter cAMP detection)
# Type: cell-based
# condition label: cAMP Hunter CHOK1 CXCR3 Gi cells, 20 μM forskolin, 30 minutes; read-out: Activity (CXCR3 cAMP agonist assay compound EC50)
pEC50: −log10 of the molar value.
Quick reference for pEC50 among some compounds

Cc1cc(NC(=O)[C@H](CCN)NC(=O)[C@@H]2Cc3ccccc3CN2C(=O)CCC(=O)NC2CC2(F)F)ccc1Cl (stereo partly drawn) | 6.30 to 6.60
CC[C@H]1CCCCN1C(=O)CCC(=O)N1Cc2ccccc2C[C@H]1C(=O)N[C@@H](CCN)C(=O)Nc1ccc(Cl)c(C)c1 | > 7.30

Quick note, pEC50 for `CCc1c(NC(=O)[C@H](CCN)NC(=O)[C@@H]2Cc3ccccc3CN2C(=O)CCC(=O)c2ccccc2)ccc(Cl)c1Cl` landed at 6.60 to 7.30
